- SYSTEM TESTED: JAK1 (Homo sapiens (Human), UniProt P23458)
- Sequence (P23458 whole entry, species assumed): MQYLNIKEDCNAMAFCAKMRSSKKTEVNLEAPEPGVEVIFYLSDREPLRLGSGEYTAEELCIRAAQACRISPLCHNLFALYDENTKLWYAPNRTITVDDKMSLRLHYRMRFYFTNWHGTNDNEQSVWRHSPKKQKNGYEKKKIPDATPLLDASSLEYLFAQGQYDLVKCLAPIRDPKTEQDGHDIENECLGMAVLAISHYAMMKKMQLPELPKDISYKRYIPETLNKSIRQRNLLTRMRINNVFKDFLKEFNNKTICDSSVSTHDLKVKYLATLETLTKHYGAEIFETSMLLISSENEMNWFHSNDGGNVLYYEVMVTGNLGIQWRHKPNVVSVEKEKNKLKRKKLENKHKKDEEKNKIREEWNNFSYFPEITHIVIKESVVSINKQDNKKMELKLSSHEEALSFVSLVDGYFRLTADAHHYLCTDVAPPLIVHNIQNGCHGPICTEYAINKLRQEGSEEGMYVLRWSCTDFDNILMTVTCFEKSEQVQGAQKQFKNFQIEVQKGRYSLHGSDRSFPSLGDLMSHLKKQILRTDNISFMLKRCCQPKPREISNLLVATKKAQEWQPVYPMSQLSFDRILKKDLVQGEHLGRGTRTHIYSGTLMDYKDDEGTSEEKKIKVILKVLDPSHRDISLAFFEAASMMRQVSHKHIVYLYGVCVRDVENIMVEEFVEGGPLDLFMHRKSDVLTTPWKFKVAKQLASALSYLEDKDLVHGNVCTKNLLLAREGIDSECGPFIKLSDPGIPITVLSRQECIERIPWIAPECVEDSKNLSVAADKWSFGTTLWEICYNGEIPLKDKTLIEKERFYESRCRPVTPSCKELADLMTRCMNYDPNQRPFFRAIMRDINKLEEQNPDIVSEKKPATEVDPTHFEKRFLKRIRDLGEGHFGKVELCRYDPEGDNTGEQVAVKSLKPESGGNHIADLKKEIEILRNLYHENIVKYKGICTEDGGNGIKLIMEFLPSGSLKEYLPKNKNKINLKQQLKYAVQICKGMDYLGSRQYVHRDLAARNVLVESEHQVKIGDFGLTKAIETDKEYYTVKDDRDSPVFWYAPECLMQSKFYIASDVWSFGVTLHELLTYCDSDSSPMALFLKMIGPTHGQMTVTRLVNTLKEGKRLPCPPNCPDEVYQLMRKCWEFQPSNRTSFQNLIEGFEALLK
- ASSAY REMARKS: JAK kinase assay (KINASE-GLO luminescent), JAK1 enzyme
- Type: biochemical
- REPORTED CONDITIONS: JAK1 enzyme 10 nM, Abl peptide substrate
pIC50: −log10 of the molar value.
READOUT KIND: pIC50

1. [2H]C([2H])([2H])n1cc(Nc2ncc(C)c(N3CC(CC#N)(N4CCN5C[C@H](F)C[C@H]5C4)C3)n2)cn1 [E156a] | > 8.00
2. Cc1cc(Nc2ncc(C)c(N3CC(CC#N)(N4CC5CC(C4)C5(F)F)C3)n2)sn1 | > 8.00
3. Cc1cc(Nc2ncc(C)c(N3CC(CC#N)(N4CCN5CCCC[C@@H]5C4)C3)n2)sn1 [E85a] | > 7.30
